assay: Hot Block Gel Tests With Polyester Resin; conditions: Table V; block 180 °F, 1% wt peroxide (100% purity basis)
Can you tell me Exotherm Time for the items I'm about to list?
Output spec: scalar in min, unitless text.

Give Exotherm Time for CCCCCCCCCCCCCCCCCCOC(=O)OOC(C)=O [acetyl peroxystearyl carbonate]
4.05

Give Exotherm Time for CC(C)(C)C1CCC(OC(=O)OOC(=O)OC2CCC(C(C)(C)C)CC2)CC1 (stereo not shown)
3.39

Give Exotherm Time for CC(=O)OOC(=O)OCC1CCC(COC(=O)OOC(C)=O)CC1 (stereo not shown)
4.05

Give Exotherm Time for O=C(OCCOc1ccccc1)OOC(=O)OCCOc1ccccc1 [di(phenoxyethyl) peroxydicarbonate]
5.62
